Origin of the recorded values: patent US9090593B2

System Name: full length recombinant Pim-1 protein (Homo sapiens)
Construct: by full length recombinant Pim-1, Pim-2, or Pim-3 protein; hexahistidine tag followed by a thrombin cleavage site (N); made in house; host or cells: Sf9 (baculovirus) or E. coli (pET28)
Test Summary: Pim-1 enzyme assay (HTRF, phosphorylation of biotinylated-BAD (S112) peptide)
Format: biochemical
Measurement Setup: read-out: Pim_1_IC50
Experimental: These cDNAs were used as templates in PCR reactions to produce full-length DNA clones of the PIMs. […] This step was repeated 3× and the resin was transferred to a 2.5 cm glass column. […] Fractions were analyzed by SDS-PAGE and those containing the protein of interest were pooled and concentrated. […] The final buffer conditions were as follows: 60 mM Hepes, pH 7.0, 0.05% BSA, 2 mM DTT. […] For each plate, percent of control (POC) values were calculated for each well. […]
pIC50: −log10 of the molar value.
Property Name: pIC50

compound="O=c1cc(-c2n[nH]c3ccc(-c4c(F)cccc4F)cc23)nc(OC2CNCCC2F)[nH]1 (stereo not shown) [Example 554]" property_name=pIC50 observed=8.15

(I) FCCOc1cncc(-c2n[nH]c3ccc(-c4nccc(C5CC5)n4)cc23)n1 [Example 385]
(II) COC(=O)c1ccc2[nH]nc(-c3ccnc(N[C@@H]4CCCNC4)n3)c2c1 [Example 490]
(III) C=C(c1ccc2[nH]nc(-c3cncc(O[C@H]4CNCCC45CC5)n3)c2c1)C(F)(F)F [Example 257]
(IV) COc1cc(C#N)c(-c2ccc3[nH]cc(-c4cncc(O[C@@H]5CCCNC5)n4)c3c2)cc1OC(C)C [Example 342]
(V) c1cc(C2CC2)nc(-c2c[nH]c3ccc(-c4cncc(C5CC5)n4)cc23)n1 [Example 371]
In: Arrange the 5 compounds from largest to smallest pIC50. Show the ranking through the labels, in the order asked for.
Out: III, II, V, I, IV
(III: 8.40, II: 7.89, V: 7.59, I: 7.25, IV: 6.80)

###

System Name: full length recombinant Pim-1 protein (Homo sapiens, UniProt P11309)
Construct: by full length recombinant Pim-1, Pim-2, or Pim-3 protein; hexahistidine tag followed by a thrombin cleavage site (N); made in house; host or cells: Sf9 (baculovirus) or E. coli (pET28)
Sequence (P11309 whole entry): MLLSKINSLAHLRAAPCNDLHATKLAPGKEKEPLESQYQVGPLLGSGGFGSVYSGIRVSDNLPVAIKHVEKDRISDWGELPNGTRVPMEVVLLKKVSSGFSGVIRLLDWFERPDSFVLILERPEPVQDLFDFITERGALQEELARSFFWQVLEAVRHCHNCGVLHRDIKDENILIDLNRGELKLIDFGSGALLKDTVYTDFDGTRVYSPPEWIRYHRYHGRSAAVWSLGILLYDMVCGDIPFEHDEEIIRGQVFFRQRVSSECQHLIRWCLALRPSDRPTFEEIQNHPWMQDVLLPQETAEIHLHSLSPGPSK
Test Summary: Pim-1 enzyme assay (HTRF, phosphorylation of biotinylated-BAD (S112) peptide)
Format: biochemical
Measurement Setup: enzyme assay, Pim-1; read-out: Pim_1_IC50
pIC50: −log10 of the molar value.
Property Name: pIC50

compound=CC(C)Oc1cncc(-c2ccc3[nH]cc(-c4cc(N)ccn4)c3c2)n1 observed=6.09
compound=CN(C)c1cccc(-c2ccc3[nH]nc(-c4cncc(N5CCC(N)CC5)n4)c3c2)c1 observed=8.05
compound=NC1CCN(c2cncc(-c3n[nH]c4ccc(N5CCCCC5)cc34)n2)CC1 observed=7.64

(A) COc1cncc(-c2ccc3[nH]nc(-c4cncc(O[C@@H]5CCCNC5)n4)c3c2)c1
(B) Nc1cccc(-c2ccc3[nH]nc(-c4cncc(N5CCC(N)CC5)n4)c3c2)c1
In: Between A and B , whose recorded pIC50 is greater? Pick one; state its label.
Out: B

(I) CCNC(=O)c1ccc(F)c(-c2ccc3[nH]nc(-c4cncc(N5CCC(N)CC5)n4)c3c2)c1
(II) CC(C)NC(=O)c1ccc(F)c(-c2ccc3[nH]nc(-c4cncc(O[C@@H]5CCCNC5)n4)c3c2)c1
In: Of I and II , which shows the smaller pIC50 value? Pick one; state its label.
Out: II

###

System Name: full length recombinant Pim-2 protein (Homo sapiens)
Construct: by full length recombinant Pim-1, Pim-2, or Pim-3 protein; hexahistidine tag followed by a thrombin cleavage site (N); made in house; host or cells: Sf9 (baculovirus) or E. coli (pET28)
Test Summary: Pim-2 enzyme assay (HTRF, phosphorylation of biotinylated-BAD (S112) peptide)
Format: biochemical
Measurement Setup: enzyme assay, Pim-2; read-out: Pim2_IC50
Description: These cDNAs were used as templates in PCR reactions to produce full-length DNA clones of the PIMs. […] This step was repeated 3× and the resin was transferred to a 2.5 cm glass column. […] Fractions were analyzed by SDS-PAGE and those containing the protein of interest were pooled and concentrated. […] The final buffer conditions were as follows: 60 mM Hepes, pH 7.0, 0.05% BSA, 2 mM DTT. […] For each plate, percent of control (POC) values were calculated for each well. […]
Property Name: IC50 (nM)

Answered cases to consult:
compound=CC(C)Oc1cncc(-c2ccc3[nH]cc(-c4csc(-n5ccnc5)n4)c3c2)n1 quantity_unit=nM observed=1410
compound=CC(C)Oc1cc(-c2ccc3[nH]nc(-c4cncc(O[C@@H]5CCCNC5)n4)c3c2)ccn1 quantity_unit=nM observed=34

(1) Nc1cc(-c2ccc3[nH]nc(-c4cncc(N5CCC(N)CC5)n4)c3c2)ccn1
(2) Cc1c(N)cccc1-c1ccc2[nH]nc(-c3cncc(N4CCC(N)CC4)n3)c2c1
(3) N#Cc1cccc(-c2ccc3[nH]nc(-c4cncc(N5CCC(N)CC5)n4)c3c2)c1
(4) CC(C)Oc1cncc(-c2ccc3[nH]cc(-c4cncc(N(C)C)n4)c3c2)n1
(5) NC1CCN(c2cncc(-c3n[nH]c4ccc(-c5cccnc5O)cc34)n2)CC1
In: Endpoint returns the given compounds ordered by ascending IC50. Show the ranking through the labels, in the order asked for.
Out: 1, 3, 5, 2, 4
(1: 18 nM, 3: 59 nM, 5: 88 nM, 2: 224 nM, 4: 2360 nM)

(1) NC1CCN(c2cncc(-c3n[nH]c4ccc(-c5ccncc5)cc34)n2)CC1
(2) NC1CCN(c2cncc(-c3n[nH]c4ccc(-c5ccc6cc[nH]c6n5)cc34)n2)CC1
(3) CN(C)C(=O)c1ccc(F)c(-c2ccc3[nH]nc(-c4cncc(N5CCC(N)CC5)n4)c3c2)c1
(4) CCOc1cccc(-c2ccc3[nH]nc(-c4cncc(N5CCC(N)CC5)n4)c3c2)n1
In: Endpoint returns the given compounds ordered by ascending IC50. Show the ranking through the labels, in the order asked for.
Out: 3, 1, 2, 4
(3: 13 nM, 1: 20 nM, 2: 82 nM, 4: 274 nM)

###

Test system: KMS-Cell
Test Summary: KMS cell IC50 (Table 4)
Type: cell-based
Measurement Setup: KMS cells
pIC50: −log10 of the molar value.
Property Name: pIC50

molecule="CC1CNCC(Oc2nc(O)cc(-c3n[nH]c4ccc(-c5c(F)cccc5F)cc34)n2)C1 (single isomer, unassigned) [Example 568]" observed=5.68
molecule=Fc1ccc(F)c(-c2ccc3[nH]nc(-c4cncc(O[C@H]5CNCCC56CC6)n4)c3c2)c1 observed=5.19

(A) C=C(C)c1ccc2[nH]nc(-c3cncc(O[C@H]4CNCCC45CC5)n3)c2c1
(B) N#Cc1ccncc1-c1ccc2[nH]nc(-c3cncc(O[C@H]4CNCCC45CC5)n3)c2c1
In: Of A and B , which shows the smaller pIC50 value? Pick one; state its label.
Out: A

(1) Fc1cccc(F)c1-c1ccc2[nH]nc(-c3cncc(OC4CNCC5CC54)n3)c2c1 (centres unmarked) [Example 452]
(2) N#Cc1ccc(-c2ccc3[nH]nc(-c4cncc(O[C@H]5CNCCC56CC6)n4)c3c2)c(F)c1
In: Of 1 and 2 , which shows the smaller pIC50 value? Pick one; state its label.
Out: 1
(1: 5.03, 2: 5.26)

###

System Name: full length recombinant Pim-2 protein (Homo sapiens, UniProt Q9P1W9)
Construct: by full length recombinant Pim-1, Pim-2, or Pim-3 protein; hexahistidine tag followed by a thrombin cleavage site (N); made in house; host or cells: Sf9 (baculovirus) or E. coli (pET28)
Sequence (Q9P1W9 whole entry): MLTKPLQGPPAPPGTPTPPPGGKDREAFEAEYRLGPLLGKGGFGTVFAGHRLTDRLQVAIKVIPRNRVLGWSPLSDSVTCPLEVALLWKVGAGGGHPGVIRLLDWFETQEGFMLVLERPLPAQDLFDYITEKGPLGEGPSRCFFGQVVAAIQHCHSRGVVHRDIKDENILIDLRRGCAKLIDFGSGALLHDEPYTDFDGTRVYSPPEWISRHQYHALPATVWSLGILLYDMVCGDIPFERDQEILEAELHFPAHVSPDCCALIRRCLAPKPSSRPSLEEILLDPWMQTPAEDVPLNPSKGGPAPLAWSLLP
Test Summary: Pim-2 enzyme assay (HTRF, phosphorylation of biotinylated-BAD (S112) peptide)
Assay type: biochemical
Measurement Setup: read-out: Pim2_IC50
Protocol: These cDNAs were used as templates in PCR reactions to produce full-length DNA clones of the PIMs. […] This step was repeated 3× and the resin was transferred to a 2.5 cm glass column. […] Fractions were analyzed by SDS-PAGE and those containing the protein of interest were pooled and concentrated. […] The final buffer conditions were as follows: 60 mM Hepes, pH 7.0, 0.05% BSA, 2 mM DTT. […] For each plate, percent of control (POC) values were calculated for each well. […]
Property Name: IC50 (nM)

Answered cases to consult:
compound="CCCCc1nc(-c2n[nH]c3ccc(-c4c(F)cccc4F)cc23)cc(=O)[nH]1 [Example 535]" observed=262
compound="CC(C)Oc1cncc(-c2ccc3[nH]cc(-c4nnc(N5CCCC5)o4)c3c2)n1 [Example 520]" observed=527

(a) COc1cc(-c2n[nH]c3ccc(-c4c(F)cccc4F)cc23)nc(N2CCC(N)CC2)n1 [Example 506]
(b) CC(C)OC(=O)c1ccc2[nH]nc(-c3cncc(N[C@@H]4CCCNC4)n3)c2c1 [Example 474]
(c) COC(=O)c1ccc2[nH]nc(-c3cncc(O[C@@H]4CCCNC4)n3)c2c1 [Example 476]
(d) Clc1ccccc1-c1ccc2[nH]nc(-c3cncc(O[C@H]4CNCCC45CC5)n3)c2c1 [Example 406]
In: Endpoint returns the given compounds ordered by ascending IC50. Show the ranking through the labels, in the order asked for.
Out: d, a, b, c
(d: 1 nM, a: 33 nM, b: 52 nM, c: 144 nM)
